System: EKVX NSCLC
Assay: NCI-60 one-dose screen, 48 h (100 = growth as untreated, 0 = no growth, -100 = all killed)
Settings: 10 µM unless noted
The panel holds about 83,000 compounds, 20% with a hit somewhere; the sample as a whole holds those more often. Activity calls are given as the source filed them. The calls were made as follows: active = growth percent below 10; inactive = the rest.
quantityName: growth

response.value for C=C(C)[C@@H]1CC[C@]2(c3ncc(C)o3)CC[C@]3(C)[C@H](CC[C@@H]4[C@@](C)(CCC#N)[C@H](C(=C)C)CC[C@]43C)[C@@H]12 (field: growth) = -79.1% [100 µM] (active)

response.value for CCOC(=O)c1cnc2ccc(Br)cc2c1Nc1cccc(S(N)(=O)=O)c1 (field: growth) = 96.2% (inactive)

response.value for Cc1ccc2c(c1)/C(=N\N=C/c1cn(C(C)C)c3ccccc13)C(=O)N2 (field: growth) = 61.9% (inactive)

response.value for O=C(O)CSCc1nnc2n(Cc3ccccc3)c(=O)c3c4c(sc3n12)CCCC4 (field: growth) = 93.2% (inactive)

====

Test system: HCT-15 colon
Test: NCI-60 one-dose screen, 48 h
Settings: 10 µM unless noted
The panel holds about 83,000 compounds, 20% with a hit somewhere; the sample as a whole holds those more often. Active and inactive are the calls of the source. Rule for the calls: active = growth percent below 10; inactive = the rest.
Tick one outcome: active, inactive

Please state the recorded outcome for this molecule: CCCCC(CCCCCC(CCCC)C1NC(C)Cc2cc(OC)c(OC)cc21)C1NC(C)Cc2cc(OC)c(OC)cc21 (centres undefined)
active

Please state the recorded outcome for this molecule: O=C1/C(=C/c2cccc(OCc3ccccc3)c2)Oc2cc(OCCN3CCCCC3)ccc21
active

Please state the recorded outcome for this molecule: c1cc2ccc1CNCCN1CCNCc3ccc(cc3)Oc3ccc(cc3)CNCCN(CCNCc3ccc(cc3)O2)CCNCc2ccc(cc2)Oc2ccc(cc2)CNCC1
inactive

Please state the recorded outcome for this molecule: Cc1nn(-c2ccccc2)c(N2CCOCC2)c1-c1nc2ccc([N+](=O)[O-])cc2[nH]1
inactive

Please state the recorded outcome for this molecule: CCCCCCCCCN(CCCCCCCCC)C(C)C(=O)c1ccc2cc(Br)c3ccccc3c2c1 (centres undefined)
inactive

Please state the recorded outcome for this molecule: O=[N+]([O-])c1cc([N+](=O)[O-])c(NN=C(c2ccc(O)cc2)c2ccc(O)cc2)cc1Cl
active

Please state the recorded outcome for this molecule: CCN(CC)c1ccc2cc(NC(=O)OCCNC(=O)CCNC(=O)[C@H](CC(C)C)NC(=O)C(C)(C)NC(=O)C(C)(C)NC(=O)[C@H](CC(C)C)NC(=O)CCNC(=O)C(C)(C)NC(=O)[C@H](CC(C)C)NC(=O)CCNC(=O)[C@@](C)(CC)NC(=O)[C@H](C)NC(=O)CCNC(=O)C(C)(C)NC(=O)[C@H](C)NC(=O)[C@@H]3CCCN3C(=O)[C@@](C)(CC)NC(=O)[C@H](Cc3ccccc3)NC(=O)C3CCCN3C(=O)C(C)(C)NC(=O)C3CCCN3C(=O)C(C)(C)NC(C)=O)c(=O)oc2c1 (some centres undefined)
active

Please state the recorded outcome for this molecule: O=C(NCCO)c1cccnc1
inactive

Please state the recorded outcome for this molecule: CC1(C)OC2[C@@H](CNC(=O)NC(=O)NC(=O)CI)O[C@@H](n3cnc4c(NC(=O)Nc5ccccc5)ncnc43)[C@H]2O1 (some centres undefined)
inactive

Please state the recorded outcome for this molecule: Cn1c(=O)c(C#N)c(-c2ccco2)n2c(S(=O)(=O)Cc3ccccc3)nnc12
inactive

Please state the recorded outcome for this molecule: Cc1ccc(C2=C/C(=C/c3ccc(Br)cc3)C(=O)N2CCc2ccc(S(N)(=O)=O)cc2)cc1
inactive

Please state the recorded outcome for this molecule: C=C(C)[C@@H]1CC[C@]2(C)[C@H](CC[C@@H]3[C@@H]([C@@](C)(O)CCC=C(C)C)CC[C@]32C)[C@@]1(C)CCC(=O)O
active

Please state the recorded outcome for this molecule: COc1cc(NCc2ccccc2O)c2ncccc2c1
inactive

Please state the recorded outcome for this molecule: CC1(C)CC[C@]2(C(=O)OC(=O)[C@]34CCC(C)(C)C[C@@H]3C3=CC[C@@H]5[C@@]6(C)CCC(=O)C(C)(C)[C@@H]6CC[C@@]5(C)[C@]3(C)CC4)CC[C@]3(C)C(=CC[C@@H]4[C@@]5(C)CCC(=O)C(C)(C)[C@@H]5CC[C@]43C)[C@H]2C1
inactive
